Tested on: three broadleaf weeds: wild mustard, redroot pigweed and curly dock
Test: Pre-emergence herbicidal activity, broadleaf weeds (Table III)
Format: in vivo, Brassica kaber, Amaranthus retroflexus, Rumex crispus
Conditions: 2.24 kg/ha, 2-3 weeks after treatment
Listed here are compounds together with their documented % Control, Pre-Emergence, BL Avg..

| Compound | % Control, Pre-Emergence, BL Avg. (%) |
| --- | --- |
| CCCCN(CC)P(=O)(SCC)N(CCC)CCC (stereo not drawn) | 0 |
| CCCCN(CCCC)P(=O)(SC(C)CC)N(CC)CC (stereo not drawn) | 40 |
| CCCSP(=O)(N(CCC)CCC)N(CCC)CCC | 57 |
| CCCCN(CC)P(=O)(SC(C)C)N(CCC)CCC (stereo not drawn) | 3 |
| CCCCN(CCCC)P(=O)(SCCC)N(CCC)CCC (stereo not drawn) | 0 |
| C=CCN(CC=C)P(=O)(SCC)N(CCC)CCC (stereo not drawn) | 0 |

* * *

System: three broadleaf weeds: wild mustard, redroot pigweed and curly dock
Experiment: Pre-emergence herbicidal activity, broadleaf weeds (Table III)
Type: in vivo, Brassica kaber, Amaranthus retroflexus, Rumex crispus
Details: 2.24 kg/ha, 2-3 weeks after treatment
Assign class by % Control, Pre-Emergence, BL Avg.: not lower than 10% means 1.0; lower than 10% means 0.0.

| Compound | Group label |
| --- | --- |
| CCCCCSP(=O)(N(CCC)CCC)N(CCCC)CCCC (stereo not shown) | 1.0 |
| C=CCN(CC=C)P(=O)(SCCC)N(CCC)CCC (stereo not shown) | 0.0 |
| CCCN(CCC)P(=O)(SC(C)C)N1CC(CC)CCC1C (stereo not shown) | 1.0 |
| CCCN(CCC)P(=O)(SC1CCCCC1)N(CCC)CCC | 0.0 |
| CCCCSP(=O)(N(CC)CCCC)N(CCC)CCC (stereo not shown) | 0.0 |
| CCCN(CCC)P(=O)(SC(C)(C)CC)N(CCC)CCC | 0.0 |
| CCCN(CCC)P(=O)(SCC)N(C)c1ccccc1 (stereo not shown) | 0.0 |

* * *

Tested on: three broadleaf weeds (morning glory, mustard, velvetleaf)
Design: species or system Ipomoea purpurea, Brassica kaber, Abutilon theophrasti
Details: in vivo

| Compound | % Control, Post-emergence, BL avg., % |
| --- | --- |
| CCCSP(=O)(N(CCC)CCC)N(C)c1ccc(Cl)cc1Cl (stereo not drawn) [Compound 22] | 60 |
| CCCSP(=O)(N(CCC)CCC)N(C)c1c(F)c(F)cc(F)c1F (stereo not drawn) | 100 |
| CCCSP(=O)(N(C)CC)N(CCC)CCC (stereo not drawn) | 100 |
| CCCSP(=O)(N(CCC)CCC)N(C)c1ccc(OC)cc1 (stereo not drawn) [Compound 36] | 100 |
| CCCSP(=O)(N(CCC)CCC)N(C)c1cccc([N+](=O)[O-])c1 (stereo not drawn) | 53 |
| CCCSP(=O)(N(CCC)CCC)N(CC)c1ccccc1 (stereo not drawn) | 50 |
| CCCSP(=O)(N(CCC)CCC)N(C)c1ccc(Br)cc1C (stereo not drawn) | 93 |
| CCCSP(=O)(N(CCC)CCC)N(C)c1ccc(OC)cc1 (stereo not drawn) [Compound 10] | 80 |
| CCCSP(=O)(N(CC)CC(C)C)N(CC)CC(C)C | 100 |
| CCCSP(=O)(N(CCC)CCC)N(CC)c1ccc(F)cc1 (stereo not drawn) | 100 |
| CCCSP(=O)(N(CCC)CCC)N(C)c1cccnc1 (stereo not drawn) | 70 |
| CCCSP(=O)(N(CCC)CCC)N(C)c1ccc(Cl)cc1Cl (stereo not drawn) [Compound 38] | 100 |

* * *

As shown below, each of these molecules has a reported % Control, Pre-Emergence, BL Avg. value.
Test system: three broadleaf weeds: wild mustard, redroot pigweed and curly dock
Test: Pre-emergence herbicidal activity, broadleaf weeds (Table III)
Format: in vivo, Brassica kaber, Amaranthus retroflexus, Rumex crispus
Settings: 2.24 kg/ha, 2-3 weeks after treatment
Description: The herbicidal effect was observed by comparing the extent of weed control in test flats treated with the compounds against that occurring in similar non-treated control flats. All were applied at 3.57 lb/A (4 kg/ha) to pre-emergence and post-emergence screening flats. An 80 gal/A (748.3 1/ha) spray volume was utilized. […] The degree of weed control was visually assessed and recorded as percentage control compared to the growth of the same species in an untreated check flat of the same age. […]

| Molecule | Units label | % Control, Pre-Emergence, BL Avg. |
| --- | --- | --- |
| CCCSP(=O)(N(CC)CC)N(CCC)CCC (stereo not shown) | % | 30 |
| CCCCN(CCCC)P(=O)(SC(C)CC)N(CCC)CCC (stereo not shown) | % | 0 |
| CCCCN(CCCC)P(=O)(SCC)N(CCC)CCC (stereo not shown) | % | 0 |
| CCCCN(CCCC)P(=O)(SC(C)C)N(CCC)CCC (stereo not shown) | % | 0 |
| CCCCCSP(=O)(N(CCC)CCC)N(CCC)CCC | % | 23 |
| CCCCN(CCCC)P(=O)(SC(C)CC)N(C)C (stereo not shown) | % | 10 |
| CCCCSP(=O)(N(CC)CC)N(CC)CC | % | 0 |
| CCCCCCSP(=O)(N(CCC)CCC)N(CCC)CCC | % | 10 |
| CCCCN(CCCC)P(=O)(SC(C)C)N(C)C (stereo not shown) | % | 20 |
| CCCCN(CCCC)P(=O)(SCCC)N(C)C (stereo not shown) | % | 13 |
| CCCCN(CC)P(=O)(SC(C)CC)N(CCC)CCC (stereo not shown) | % | 0 |
| CCCCCCSP(=O)(N(CC)CCCC)N(CCC)CCC (stereo not shown) | % | 10 |
| C=CCN(CC=C)P(=O)(SCCCC)N(CCC)CCC (stereo not shown) | % | 0 |
| CCCCN(CCCC)P(=O)(SC(C)(C)C)N(CCC)CCC (stereo not shown) | % | 0 |
| C=CCSP(=O)(N(CCC)CCC)N(CCC)CCC | % | 37 |
| CCCCN(CCCC)P(=O)(SC1CCCCC1)N(C)C (stereo not shown) | % | 0 |
| CCCN(CCC)P(=O)(SCc1ccccc1)N(CCC)CCC | % | 13 |
| C=CCSP(=O)(N(CC)CCCC)N(CCC)CCC (stereo not shown) | % | 0 |
| CCCCSP(=O)(N(CC)CC)N(CCCC)CCCC (stereo not shown) | % | 7 |
| C=CCSP(=O)(N(CCC)CCC)N(CCCC)CCCC (stereo not shown) | % | 0 |
| CCCN(CCC)P(=O)(SC(C)C)N(CCC)CCC | % | 50 |
| CCCCN(CCCC)P(=O)(SC(C)C)N(CC)CC (stereo not shown) | % | 12 |

* * *

System: three broadleaf weeds: wild mustard, redroot pigweed and curly dock
Experiment: Pre-emergence herbicidal activity, broadleaf weeds (Table III)
Assay type: in vivo, Brassica kaber, Amaranthus retroflexus, Rumex crispus
Details: 2.24 kg/ha, 2-3 weeks after treatment
# % Control, Pre-Emergence, BL Avg. annotations

| Molecule | Assay target | % Control, Pre-Emergence, BL Avg. / % |
| --- | --- | --- |
| CCCN(CCC)P(=O)(SCC)N(CCC)CCC | three broadleaf weeds: wild mustard, redroot pigweed and curly dock | 10 |
| CCCCCSP(=O)(N(CC)CCCC)N(CCC)CCC (stereo not drawn) | three broadleaf weeds: wild mustard, redroot pigweed and curly dock | 10 |
| CCCN(CCC)P(=O)(SCC)N1CC(CC)CCC1C (stereo not drawn) | three broadleaf weeds: wild mustard, redroot pigweed and curly dock | 10 |
